Where do these numbers come from? They come from paper PMC12864978.

Assay: Mouse liver microsomal stability
Assay type: in vitro ADME
Conditions: liver microsomes; translated from intrinsic clearance; mouse; read-out: in vivo clearance (simplified well-stirred model) (converted)
test readout: CLhep predicted

Quick note, CLhep predicted for "Cc1ccc(-n2nc3c(=O)n(CCCCS(=O)(=O)N(CCc4cccc(CCBr)c4)CC4CCNCC4)nc(C)c3c2C)cc1" landed at ~66.7 mL/min/kg

* * *

Molecular target: PDEδ (Homo sapiens, UniProt O43924)
Test: Covalent modification of PDEδ by MALDI mass spectrometry
Type: binding
Design: His tag; made in house; host or cells: Escherichia coli Rosetta (BL21DE3), pET plasmids
Settings: PDEδ 20 µM, compound 60 µM, HEPES pH 7.5, 37 °C; mean ± s.e.m.
test readout: % covalent modification at 24 h (%)
# value in %; strip the unit string

Cc1ccc(-n2nc3c(=O)n(CCCCS(=O)(=O)N(CCCCCCCBr)CC4CCNCC4)nc(C)c3c2C)cc1
62
Cc1ccc(-n2nc3c(=O)n(CCCCS(=O)(=O)N(CCCCCBr)CC4CCNCC4)nc(C)c3c2C)cc1
23
Cc1ccc(-n2nc3c(=O)n(CCCC(=O)N(CCCCCBr)CC4CCNCC4)nc(C)c3c2C)cc1
11

The value of % covalent modification at 24 h measured for the molecule "Cc1ccc(-n2nc3c(=O)n(CCCC(=O)NCCCCCBr)nc(C)c3c2C)cc1" turned out to be 8

* * *

Assay: GSH adduct formation (stability in the presence of GSH)
Format: physicochemical
Settings: phosphate buffer with 10 mM GSH; 10-fold excess of GSH at 10 mM, phosphate buffer pH 7.4, 37 °C; read-out: half-life for GSH adduct formation t1/2 GSH (converted)
test readout: half-life at 1 mM (days)
Only the number, expressed in days, is required.

So for "Cc1ccc(-n2nc3c(=O)n(CCCCS(=O)(=O)N(CCc4cccc(CCBr)c4)CC4CCNCC4)nc(C)c3c2C)cc1" , the logged half-life at 1 mM turned out to be 43.1

"Cc1ccc(-n2nc3c(=O)n(CCCCS(=O)(=O)N(CCCCCCCBr)CC4CCNCC4)nc(C)c3c2C)cc1" has a reported half-life at 1 mM of 180

* * *

Biological target: PDEδ in the presence of Arl2•GppNHp (Homo sapiens, UniProt O43924)
Construct: His tag; made in house; host or cells: Escherichia coli Rosetta (BL21DE3), pET plasmids
Test: Competitive fluorescence polarisation assay in the presence of Arl2•GppNHp
Format: binding
Conditions: 37 °C; PDEδ 40 nM, Arl2•GppNHp 40 nM, FA probe 24 nM
test readout: pIC50
Just so you know, pIC50 here is -log10 of the concentration in molar units; reply with that number alone.

Value of measured pIC50 for the entry "Cc1ccc(-n2nc3c(=O)n(CCCCS(=O)(=O)N(CCc4cccc(CCBr)c4)CC4CCNCC4)nc(C)c3c2C)cc1" : 8.00

* * *

Test system: NCI-H358 cells
Assay: Real-time cell analysis (Incucyte) of proliferation
Format: cell-based, human
Details: NCI-H358; 72 h; read-out: cellular IC50
test readout: IC50 (µM)
Use µM as the unit, but write only the number.

Lab book: IC50 of Cc1ccc(-n2nc3c(=O)n(CCCCS(=O)(=O)N(CCc4cccc(CCCl)c4)CC4CCNCC4)nc(C)c3c2C)cc1 [6b] noted as 6.3

* * *

Below, each of the compounds is paired with its reported IC50 value.
Test system: PA-TU-8902 cells
Assay: Real-time cell analysis (Incucyte) of proliferation
Format: cell-based, human
Conditions: Homo sapiens, PaTu 8902; PA-TU-8902; 72 h; read-out: cellular IC50

Cc1ccc(-n2nc3c(=O)n(CCCCS(=O)(=O)N(CCc4cccc(CCBr)c4)CC4CCNCC4)nc(C)c3c2C)cc1 [6a]
6.8 µM

Continue with the next compound.
Memo: Cc1ccc(-n2nc3c(=O)n(CCCCS(=O)(=O)N(CCc4cccc(CCCl)c4)CC4CCNCC4)nc(C)c3c2C)cc1 [6b] , reported IC50: 12 µM

* * *

Biological target: PDEδ (Homo sapiens)
Experiment: Differential scanning fluorimetry (NanoDSF)
Format: binding
Set-up: His tag; made in house; host or cells: Escherichia coli Rosetta (BL21DE3), pET plasmids
Conditions: PDEδ 20 µM, compound 60 µM; mean ± s.d., Fig. 2e; read-out: melting temperature shift ΔTm (NanoDSF)
Recorded ΔTm at 60 µM for the following molecules
Just the number please, in °C, no unit attached.

Cc1ccc(-n2nc3c(=O)n(CCCCS(=O)(=O)N(CCc4cccc(CCBr)c4)CC4CCNCC4)nc(C)c3c2C)cc1 [6a]
15.5
Cc1ccc(-n2nc3c(=O)n(CCCCS(=O)(=O)N(CCCCCCCBr)CC4CCNCC4)nc(C)c3c2C)cc1 [5e]
14.7

In plain terms, Cc1ccc(-n2nc3c(=O)n(CCCCS(=O)(=O)N(CCCCCCCCl)CC4CCNCC4)nc(C)c3c2C)cc1 [5h] has a documented ΔTm at 60 µM of 11.3

Reported ΔTm at 60 µM ( Cc1ccc(-n2nc3c(=O)n(CCCCS(=O)(=O)N(CCc4cccc(CCCl)c4)CC4CCNCC4)nc(C)c3c2C)cc1 [6b] ) = 11.1
